# assay_procedure: Area under the curve determination of plasma levels in rats (rapid rat AUC)
# Format: in vivo
# condition: Table A, oral, 10 mg/kg, blood 0.5-6 h post-dosing, read-out: RR AUC
quantity_kind: AUC (µM·h)
The reply should be a number in µM·h, with the unit left off.

Enquiry: Fill blank: measured AUC of the compound COC(=O)[C@@](CN1Cc2ccc(OC)c(F)c2C1=O)(NC(N)=O)c1cc2nc(Cl)c(F)cc2o1 is ____.
Return: 0.113

---

# Tested on: TNF-α production from human whole blood
# assay_procedure: Inhibition of TNF-α production from human whole blood (hWBA)
# Type: cell-based
# condition: Table A; human whole blood diluted 1:1, LPS stimulation, 3.5 h, TNF-α by ELISA
# Experimental: Assay for Inhibition of TNF-α Production from Human Whole Blood (hWBA) Human whole blood was diluted 1:1 with serum free medium (RPMI, L-glutamine, Pen-Strep, HEPES) and incubated with a test compound in a final volume of 360 μL for 1 h at 37° C. […] Supernatant was collected after 3.5 h incubation and the concentration of TNF-α was determined by ELISA (R&D Systems). The concentration of the test compound which inhibits 50% of the amount of TNF-α from the control untreated control was determined.
quantity_kind: IC50 (nM)
# number only, unit nM dropped from output

| line_notation | IC50, nM |
| --- | --- |
| COc1ccc2c(c1)C(=O)N(C[C@@]1(c3cc4nc(C(=N)N5CCCN(C)CC5)ccc4o3)NC(=O)NC1=O)C2 | 1820 |
| COC(=O)[C@@](CN1Cc2ccc(OC)c(F)c2C1=O)(NC(N)=O)c1cc2nc(Cl)c(F)cc2o1 | 3100 |

Next, consider the following compound.
Enquiry: Give its IC50 value. Item: CCN1CCN(C(=N)c2ccc3oc([C@]4(CN5Cc6ccc(OC)cc6C5=O)NC(=O)NC4=O)cc3n2)CC1
Return: 1890

---

# Test system: TNF-α production from human whole blood
# assay_procedure: Inhibition of TNF-α production from human whole blood (hWBA)
# Format: cell-based
# condition: Table A; human whole blood diluted 1:1, LPS stimulation, 3.5 h, TNF-α by ELISA
pIC50: −log10 of the molar value.
pIC50 values by entry

The cases that follow already have their pIC50 on record.
| compound | pIC50 |
| --- | --- |
| COc1ccc2c(c1)C(=O)N(C[C@@](O)(C(=O)O)c1cc3cnccc3[nH]1)C2 [Compound 1120B] | < 5.00 |
| COc1c(F)cc2c(c1F)C(=O)N(CC1(c3cc4ncccc4o3)NC(=O)NC1=O)C2 (centres unmarked) | < 5.00 |

Enquiry: Requested read-out: pIC50. Entry: COc1c(F)cc2c(c1F)C(=O)N(CC1(C#Cc3ccc(C4(CN)NC(=O)NC4=O)cc3)NC(=O)NC1=O)C2 (centres unmarked)
Return: < 5.00

Enquiry: // lookup pIC50 for O=C1NC(=O)[C@](CN2Cc3ccc4oc(Cc5ccccc5)cc4c3C2=O)(c2cc3ncccc3o2)N1
Return: < 5.00

---

Each record here notes measured pIC50.
# Tested on: TNF-α production from human whole blood
# assay_procedure: Inhibition of TNF-α production from human whole blood (hWBA)
# Format: cell-based
# condition: Table A; human whole blood diluted 1:1, LPS stimulation, 3.5 h, TNF-α by ELISA
Field pIC50 (float): negative decimal logarithm of the concentration in molar.

| compound | pIC50 |
| --- | --- |
| Cc1cc2cc3c(c(F)c2o1)C(=O)N(CC1(c2cc4nc(-c5cn[nH]c5)ccc4o2)NC(=O)NC1=O)C3 (stereo not shown) | 6.30 |

Enquiry: I'd like to know its pIC50. The compound in question is COc1c(F)cc2c(c1F)C(=O)N(C[C@@]1(c3cc4cnccc4o3)NC(=O)NC1=O)C2
Return: 5.15

Enquiry: State the recorded pIC50 for this entry: CCN1CCCN(c2ccc(O)c(CC(=O)[C@]3(CN4Cc5ccc(OC)c(F)c5C4=O)NC(=O)NC3=O)n2)CC1
Return: 5.80

---

Parameter IC50: see the listing below.
# System: TNF-α production from human whole blood
# assay_procedure: Inhibition of TNF-α production from human whole blood (hWBA)
# Type: cell-based
# condition: Table A; human whole blood diluted 1:1, LPS stimulation, 3.5 h, TNF-α by ELISA

Would you please look over these solved cases?
| compound | endpoint_result |
| --- | --- |
| COc1ccc2c(c1)C(=O)N(C[C@@](N)(C(=O)O)c1cc3cnccc3o1)C2 [Compound 1120A] | > 10 µM |
| COc1c(F)cc2c(c1F)C(=O)N(CC1(c3cc4nc(N5CCC(N(C)C)CC5)ccc4o3)NC(=O)NC1=O)C2 (stereo not shown) | > 10 µM |
| Cc1cc2c3c(ccc2o1)CN(C[C@@]1(c2cc4ncccc4o2)NC(=O)NC1=O)C3=O | > 10 µM |

Let's switch to this compound now.
Enquiry: What measured IC50 goes with COCc1cc2c3c(ccc2o1)CN(C[C@@]1(c2cc4ncccc4o2)NC(=O)NC1=O)C3=O ?
Return: > 10 µM

Numbers sourced from patent US8450355B2.
